// data source = patent US5627160A

Assay: in vitro
Settings: human, cem cells
pIC50: −log10 of the molar value.
Items are presented alongside their recorded pIC50.

These recorded examples may help you get a feel for the data.
Nc1ccn([C@H]2CC[C@@H](CO)O2)c(=O)n1 [ddC, reference compound] | 7.66
Nc1ccn([C@@H]2CC[C@H](CO)O2)c(=O)n1 | < 4.00

# ---- query compound ----
Ask | Can you look up the measured pIC50 of Nc1nc(=O)n([C@@H]2CC[C@H](CO)O2)cc1F for me?
Reply | < 4.00

----------
Test: Cellular toxicity in T-lymphoblastoic cell line (CEM), cell numbers 3 days post treatment
Type: cell-based
Details: human; CEM cells, 3 days; read-out: Cytotoxicity CEM Cells ID50
PARAMETER_MEASURED: CC50 at 72 h

These recorded examples may help you get a feel for the data.
Nc1ccn([C@@H]2CC[C@H](CO)S2)c(=O)n1 | > 100 µM
Nc1nc(=O)n([C@H]2CC[C@H](CO)O2)cc1F | > 100 µM

# ---- query compound ----
Ask | Can you look up the measured CC50 at 72 h of Nc1ccn([C@H]2CC[C@H](CO)S2)c(=O)n1 for me?
Reply | > 100 µM
